- Test system: Aspergillus flavus
- Assay text: Antifungal activity against Aspergillus flavus NCIM 524 assessed as reduction in fungal cell growth incubated for 3 to 4 days by disk diffusion method
- Format: functional
Below, each of the molecules is paired with its reported MIC value.
Reply numerically in µg/mL, unit not repeated.

molecule="CCC(C)n1ncn(-c2ccc(N3CCN(c4ccc(OCC5COC(Cn6cncn6)(c6ccc(Cl)cc6Cl)O5)cc4)CC3)cc2)c1=O (centres undefined)" recorded_value=6.25

Lab note: next molecule to report on.
Entry c1ccc(Cn2nnnc2SCCCSc2nnnn2-c2ccccc2)cc1 , MIC reported as 6.25

====

- Test system: Cryptococcus neoformans
- Assay text: Antifungal activity against Cryptococcus neoformans LA314 assessed as reduction in fungal cell growth incubated for 48 hrs by broth microdilution method
- Assay type: functional
- Particulars: LA314, 48 h
Recorded endpoint: MIC

Check out these entries, answers already filled in.
compound="CC(n1nnc(CCN2CCN(c3cccc(C(F)(F)F)c3)CC2)n1)C(O)(Cn1cncn1)c1ccc(F)cc1F (centres undefined)" measured_on="Cryptococcus neoformans" recorded_value="1 to 16 µg/mL"
compound="CC(n1nnnc1CCN1CCN(C(c2ccccc2)c2ccccc2)CC1)C(O)(Cn1cncn1)c1ccc(F)cc1F (centres undefined)" measured_on="Cryptococcus neoformans" recorded_value="0.5 to 16 µg/mL"
compound="CCC(C)n1ncn(-c2ccc(N3CCN(c4ccc(OCC5COC(Cn6cncn6)(c6ccc(Cl)cc6Cl)O5)cc4)CC3)cc2)c1=O (centres undefined)" measured_on="Cryptococcus neoformans" recorded_value="0.007 to 0.5 µg/mL"
compound=C[C@H](n1nnnc1CCN1CCN(c2ccc(F)cc2)CC1)[C@](O)(Cn1cncn1)c1ccc(F)cc1F measured_on="Cryptococcus neoformans" recorded_value="0.12 to 16 µg/mL"
compound="OC(Cn1cncn1)(Cn1nnc(CCN2CCN(c3cccc(C(F)(F)F)c3)CC2)n1)c1ccc(F)cc1F (centres undefined)" measured_on="Cryptococcus neoformans" recorded_value="1 to 16 µg/mL"

Entry C[C@H](n1nnc(CCN2CCN(c3c(Cl)cccc3Cl)CC2)n1)[C@](O)(Cn1cncn1)c1ccc(F)cc1F , MIC reported as 0.25 to 16 µg/mL

Entry C[C@H](n1nnc(CCN2CCN(c3ccccc3)CC2)n1)[C@](O)(Cn1cncn1)c1ccc(F)cc1F , MIC reported as 0.25 to 16 µg/mL

Entry OC(Cn1cncn1)(Cn1nnnc1CCN1CCN(c2c(Cl)cccc2Cl)CC1)c1ccc(F)cc1F (centres undefined) , MIC reported as 0.5 to 16 µg/mL

Entry OC(Cn1cncn1)(Cn1nnnc1CCN1CCN(c2cccc(Cl)c2)CC1)c1ccc(F)cc1F (centres undefined) , MIC reported as 0.5 to 16 µg/mL

Origin of values: ChEMBL document CHEMBL4393657
